Listed next: entries and their corresponding drug sensitivity score.
- Tested on: MFM-223
- Test: drug sensitivity score (DSS), CellTiter-Glo (DSS (AUC-based score)); higher = stronger drug effect (viability inhibition or cytotoxicity); extreme values may be limits of the assay
- Condition parameters: incubation time: 72 h
Number, no unit, nothing else.

O=C1CN2Cc3c(ccc(Cl)c3Cl)N=C2N1 [Anagrelide]: 0

### Prompt I would be grateful if you could share the reported drug sensitivity score for Nc1nc2[nH]cnc2c(=S)[nH]1 .
### Response 0

### Prompt Fill in: drug sensitivity score of COc1cc(F)c(F)c(Nc2ccc(I)cc2F)c1NS(=O)(=O)C1(C[C@H](O)CO)CC1 is ___
### Response 5.74

* * *

- Test system: MDA-MB-231
- Test: normalised viability (% of control), CellTiter-Blue; higher = more viable cells (about 100 = DMSO control)
- Condition parameters: 100 nM; incubation time: 72 h
Listed here: items and their measured normalised viability.
Reply with just the number (in %).

CC1(C)CNc2cc(NC(=O)c3cccnc3NCc3ccncc3)ccc21: 79.2
Nc1nc2[nH]cnc2c(=S)[nH]1: 89.3
Cn1cc(C2=Nc3cc(NC(=O)C(N)C4CCCCC4)cc4c3C2=CNNC4=O)cn1 (stereo unspecified): 83.3
COc1cc(F)c(F)c(Nc2ccc(I)cc2F)c1NS(=O)(=O)C1(C[C@H](O)CO)CC1: 45
CC1=C2C[C@H]3[C@@H](CC=C4C[C@@H](O)CC[C@@]43C)[C@@H]2CC[C@]12O[C@@H]1C[C@H](C)CN[C@H]1[C@H]2C: 84.9

Please turn your attention to the following entry.
### Prompt What normalised viability value was documented for this molecule, C[C@]1(O)C[C@@H](c2nc(-c3ccc4ccc(-c5ccccc5)nc4c3)c3c(N)nccn32)C1 ?
### Response 83.8

* * *

# reported normalised viability; entries follow
- System: HDQ-P1
- Test: normalised viability (% of control), CellTiter-Blue; higher = more viable cells (about 100 = DMSO control)
- Condition parameters: incubation time: 72 h
Could you give me the number in %? Just the number is fine.

Oc1ncnc2[nH]ncc12 [Allopurinol] (300 nM): 73.6

### Prompt So what does the record say about normalised viability for C[C@]12CC[C@@H]3c4ccc(OC(=O)N(CCCl)CCCl)cc4CC[C@H]3[C@@H]1CC[C@@H]2O [Estramustine] (29.7 nM) ?
### Response 95.3

### Prompt Requested read-out: normalised viability. Entry: Cn1cc(C2=Nc3cc(NC(=O)C(N)C4CCCCC4)cc4c3C2=CNNC4=O)cn1 (stereo unspecified) (300 nM)
### Response 58.7

### Prompt Can you share its normalised viability? I mean this compound: C[C@]1(O)C[C@@H](c2nc(-c3ccc4ccc(-c5ccccc5)nc4c3)c3c(N)nccn32)C1 [OSI-906] (300 nM)
### Response 49.8

### Prompt Fill blank: measured normalised viability of the compound CC(=O)c1c(C)c2cnc(Nc3ccc(N4CCNCC4)cn3)nc2n(C2CCCC2)c1=O (300 nM) is ____.
### Response 52.7

### Prompt Could you share which normalised viability value was measured for Cc1sc2c(c1C)C(c1ccc(Cl)cc1)=N[C@@H](CC(=O)OC(C)(C)C)c1nnc(C)n1-2 [(+)JQ1] (300 nM) ?
### Response 62.9

src = the supplement of paper PMC4862054
